The measurements presented in this section are drawn from patent US20100285095A1.

- assay.procedure: physchem
- reported.conditions: 25 °C, water

{"columns": ["compound", "unit.of.measure", "solubility"],
 "data": [
  ["O=C(O)C(O)CO (stereo not shown) [calcium glycerate]", "mM", 349]
]}
